Provide the reported MIC of each item.
# Tested on: P.vulgaris CN-329
# PROTOCOL_NOTES: MIC by agar dilution method
# Assay type: cell-based
# RUN_PARAMETERS: P.vulgaris CN-329, G(−)
# Protocol: The minimal inhibitory concentration (MIC) of compound (I) against various bacteria was determined by an agar dilution method. As reference compounds, used were cefozopran hydrochloride (CZOP) described in JP(A) Kokai H03-47189, cefoselis sulfate (CFSL) described in JP(A) Kokai H07-196665 and WO97/41128, compound A of which 3-side chain is a type of imidazo[4,5-c]pyridiniummethyl, and vancomycin. […]
Answers are plain numbers, in µg/mL.

Your task in this section: give MIC for each listed record.
1. CCON=C(C(=O)NC1C(=O)N2C(C(=O)[O-])=C(C[n+]3cccc4c3ncn4CCCN)CSC12)c1nsc(N)n1.Cl (centres unmarked)
2. CCON=C(C(=O)NC1C(=O)N2C(C(=O)[O-])=C(C[n+]3cccc4c3ncn4CCCNC)CSC12)c1nsc(N)n1.Cl (centres unmarked)
3. Cl.NCCCn1cnc2c1ccc[n+]2CC1=C(C(=O)[O-])N2C(=O)C(NC(=O)C(=NOCF)c3nsc(N)n3)C2SC1 (centres unmarked)
4. CCON=C(C(=O)NC1C(=O)N2C(C(=O)[O-])=C(C[n+]3cccc4c3ncn4C3CCNC3)CSC12)c1nsc(N)n1.Cl (centres unmarked)

Return:
1: 0.78; 2: 0.78; 3: 0.39; 4: 0.78

Enquiry: Form field: reported MIC of CNCCCn1cnc2c1ccc[n+]2CC1=C(C(=O)[O-])N2C(=O)C(NC(=O)C(=NOCF)c3nsc(N)n3)C2SC1.Cl (centres unmarked)
Return: 0.39

Values from patent US6800621B2
